Biological target: BCRP (Homo sapiens)
Assay: bidirectional transport assay across hCMEC/D3 cell monolayer with or without Ko143
Conditions: human, pH 7.4, with Ko143 1 μM, Efflux ratio (ER), hCMEC/D3 with inhibitor Ko143, 21 μM; hCMEC/D3 monolayer; 1 μM Ko143

molecule	efflux ratio at 2 h, 21 μM
NC(=O)N1c2ccccc2C=Cc2ccccc21 [CBZ, carbamazepine]	0.98

====

Biological target: BCRP (Homo sapiens)
Experiment: bidirectional transport assay across hCMEC/D3 cell monolayer with or without Ko143
Settings: human, pH 7.4, with Ko143 1 μM

compound	Papp B→A at 2 h, 25 µM (×10⁻⁶ cm/s)
NC(=O)N1c2ccccc2CC(=O)c2ccccc21 [OXC, oxcarbazepine]	3.59

====

Molecular target: BCRP (Homo sapiens, UniProt Q9UNQ0)
Experiment: bidirectional transport assay across hCMEC/D3 cell monolayer with or without Ko143
Conditions: human, pH 7.4, with Ko143 1 μM

compound	Papp A→B at 2 h, 25 µM [×10⁻⁶ cm/s]
NC(=O)N1c2ccccc2CC(=O)c2ccccc21 [OXC, oxcarbazepine]	3.21

====

Target: BCRP (Homo sapiens)
Assay: bidirectional transport assay across hCMEC/D3 cell monolayer with or without Ko143
Conditions: human, pH 7.4
metric: Papp A→B at 2 h, […] µM (×10⁻⁶ cm/s)

molecule	metric	value
NC(=O)N1c2ccccc2CC(=O)c2ccccc21 [OXC, oxcarbazepine]	Papp A→B at 2 h, […] µM	16.5

====

Biological target: BCRP (Homo sapiens, UniProt Q9UNQ0)
Test: bidirectional transport assay across hCMEC/D3 cell monolayer with or without Ko143
Settings: human, pH 7.4
metric: Papp B→A at 2 h, 80 μM (×10⁻⁶ cm/s)

1. O=C1NC(=O)C(c2ccccc2)(c2ccccc2)N1 3.36

====

Molecular target: BCRP (Homo sapiens)
Assay: bidirectional transport assay across hCMEC/D3 cell monolayer with or without Ko143
Conditions: human, pH 7.4
metric: Papp A→B at 2 h, 5 μM (×10⁻⁶ cm/s)

1) O=C1c2c(O)ccc(O)c2C(=O)c2c(NCCNCCO)ccc(NCCNCCO)c21 5.1

====

Biological target: BCRP (Homo sapiens, UniProt Q9UNQ0)
Sequence (Q9UNQ0 1-655): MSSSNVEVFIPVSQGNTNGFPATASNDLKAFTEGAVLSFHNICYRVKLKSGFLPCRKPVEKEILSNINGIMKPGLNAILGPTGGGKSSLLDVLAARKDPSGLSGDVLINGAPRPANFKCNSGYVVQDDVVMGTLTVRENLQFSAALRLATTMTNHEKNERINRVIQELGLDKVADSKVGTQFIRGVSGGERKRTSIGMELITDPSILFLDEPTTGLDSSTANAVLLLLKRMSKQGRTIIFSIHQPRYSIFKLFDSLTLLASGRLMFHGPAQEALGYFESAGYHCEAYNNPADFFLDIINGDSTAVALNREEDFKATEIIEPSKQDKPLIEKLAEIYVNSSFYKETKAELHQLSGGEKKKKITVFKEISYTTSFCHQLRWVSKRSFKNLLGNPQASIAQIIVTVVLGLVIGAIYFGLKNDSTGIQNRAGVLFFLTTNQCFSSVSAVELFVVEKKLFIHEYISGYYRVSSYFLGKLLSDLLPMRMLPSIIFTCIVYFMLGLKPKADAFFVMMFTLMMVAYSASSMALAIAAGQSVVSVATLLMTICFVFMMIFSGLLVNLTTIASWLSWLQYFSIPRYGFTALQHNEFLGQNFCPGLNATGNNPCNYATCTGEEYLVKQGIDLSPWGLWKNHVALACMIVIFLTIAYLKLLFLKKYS
Experiment: bidirectional transport assay across hCMEC/D3 cell monolayer with or without Ko143
Settings: human, pH 7.4
metric: Papp B→A at 2 h, 15 µM (×10⁻⁶ cm/s)

compound	value
CC1(C)O[C@@H]2[C@@H](CO[C@@]3(COS(N)(=O)=O)OC(C)(C)O[C@@H]23)O1 [TPM, topiramate]	0.71
